- Test system: Platelet-derived growth factor receptor alpha (Homo sapiens), P16234 [T674I]
- Sequence (P16234 whole entry T674I): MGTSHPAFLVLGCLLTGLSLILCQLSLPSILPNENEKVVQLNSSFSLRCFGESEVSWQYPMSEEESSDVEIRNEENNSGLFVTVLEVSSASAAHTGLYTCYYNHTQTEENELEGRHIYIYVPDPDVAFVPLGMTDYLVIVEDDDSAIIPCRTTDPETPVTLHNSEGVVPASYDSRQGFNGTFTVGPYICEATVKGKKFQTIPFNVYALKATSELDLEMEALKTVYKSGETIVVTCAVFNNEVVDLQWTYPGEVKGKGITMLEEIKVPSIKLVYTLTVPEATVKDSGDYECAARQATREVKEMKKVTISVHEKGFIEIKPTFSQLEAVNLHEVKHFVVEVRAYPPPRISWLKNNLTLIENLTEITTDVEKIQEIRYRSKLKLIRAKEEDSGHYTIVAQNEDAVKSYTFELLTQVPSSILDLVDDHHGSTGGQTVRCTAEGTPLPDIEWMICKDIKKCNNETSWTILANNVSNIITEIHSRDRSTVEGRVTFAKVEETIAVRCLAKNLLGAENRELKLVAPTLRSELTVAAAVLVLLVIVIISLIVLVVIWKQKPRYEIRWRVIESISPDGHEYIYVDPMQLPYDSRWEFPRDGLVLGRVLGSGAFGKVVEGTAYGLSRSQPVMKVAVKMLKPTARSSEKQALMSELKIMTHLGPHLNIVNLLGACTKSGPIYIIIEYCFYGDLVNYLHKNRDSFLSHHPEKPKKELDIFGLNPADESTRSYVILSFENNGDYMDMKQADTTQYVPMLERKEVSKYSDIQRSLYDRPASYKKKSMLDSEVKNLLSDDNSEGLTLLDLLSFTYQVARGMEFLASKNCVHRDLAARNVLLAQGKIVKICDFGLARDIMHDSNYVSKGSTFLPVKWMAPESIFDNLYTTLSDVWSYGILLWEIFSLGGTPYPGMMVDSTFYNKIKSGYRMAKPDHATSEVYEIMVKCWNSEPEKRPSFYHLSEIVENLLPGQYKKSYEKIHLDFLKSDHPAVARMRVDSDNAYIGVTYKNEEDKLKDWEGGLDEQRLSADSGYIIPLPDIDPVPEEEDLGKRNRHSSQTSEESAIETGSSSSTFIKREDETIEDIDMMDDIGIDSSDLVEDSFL
- Conditions used: at 0.1 µM
Readout kind: inhibition (%)
Quick reminder: number only, in %, skip the unit.

Smiles representation	Readout kind	Measure unit	Observed value
CCn1c(-c2nonc2N)nc2c(C#CC(C)(C)O)ncc(OC3CCNCC3)c21	inhibition	%	4.95
CC(C)COC(=O)c1ccc2c(c1)/C(=C/Nc1ccc(S(N)(=O)=O)cc1)C(=O)N2	inhibition	%	4.41
COc1ccc(-c2cc(-c3c[nH]nc3-c3ccccn3)ccn2)cc1	inhibition	%	7.15
CCN(CC)S(=O)(=O)c1ccc(OC)c(Nc2ncc(-c3ccccc3)o2)c1	inhibition	%	8.47
c1ccc(-c2nc3n(c2-c2ccc4c(c2)OCO4)CCC3)nc1	inhibition	%	2.77

Given the entry CNC(=O)c1cc(-c2ccc(F)cc2)cc(-c2ccc(S(=O)(=O)N3CCCC3)cc2)c1N , what inhibition was observed with Platelet-derived growth factor receptor alpha (Homo sapiens), P16234 [T674I]?
2.94

Given the entry c1cc(-c2cnn3nc(N4CCOCC4)ccc23)nc(NC2CC2)n1 , what inhibition was observed with Platelet-derived growth factor receptor alpha (Homo sapiens), P16234 [T674I]?
2.78

Given the entry CCNC(=O)O[C@H]1CN[C@H](C#Cc2cc3ncnc(Nc4ccc(OCc5cccc(F)c5)c(Cl)c4)c3s2)C1 , what inhibition was observed with Platelet-derived growth factor receptor alpha (Homo sapiens), P16234 [T674I]?
4.01

Given the entry CN(C)CCOc1ccc(-c2nc(-c3ccncc3)c(-c3ccc4c(c3)CC/C4=N\O)[nH]2)cc1 , what inhibition was observed with Platelet-derived growth factor receptor alpha (Homo sapiens), P16234 [T674I]?
3.47

Given the entry Cc1ccc(O)cc1Nc1ccnc2cc(-c3ccccn3)ccc12 , what inhibition was observed with Platelet-derived growth factor receptor alpha (Homo sapiens), P16234 [T674I]?
7.02

Given the entry c1ccc(COc2ccc(Nc3ncnc4ccc(-c5ccco5)cc34)cc2)cc1 , what inhibition was observed with Platelet-derived growth factor receptor alpha (Homo sapiens), P16234 [T674I]?
2.49

Given the entry CCn1cc(-c2ccnc3[nH]ccc23)c(-c2cccc(NC(=O)Nc3ccc(OCc4ccccc4)cc3)c2)n1 , what inhibition was observed with Platelet-derived growth factor receptor alpha (Homo sapiens), P16234 [T674I]?
0.5

Given the entry NS(=O)(=O)c1ccc(Nc2ncc(-c3ccccc3)o2)cc1 , what inhibition was observed with Platelet-derived growth factor receptor alpha (Homo sapiens), P16234 [T674I]?
14.4

Given the entry CCc1nn2ncccc2c1-c1ccnc(NC2CC2)n1 , what inhibition was observed with Platelet-derived growth factor receptor alpha (Homo sapiens), P16234 [T674I]?
4.48

Given the entry NS(=O)(=O)c1ccc(N/N=C2\C(=O)Nc3ccc4ncccc4c32)cc1 , what inhibition was observed with Platelet-derived growth factor receptor alpha (Homo sapiens), P16234 [T674I]?
16.7

Given the entry COc1cccc(-n2ncc3c(N/N=C/c4ccc(F)cc4)ncnc32)c1 , what inhibition was observed with Platelet-derived growth factor receptor alpha (Homo sapiens), P16234 [T674I]?
9.07

Given the entry Fc1ccc(-c2cc(-c3c[nH]nc3-c3ccccn3)ccn2)cc1 , what inhibition was observed with Platelet-derived growth factor receptor alpha (Homo sapiens), P16234 [T674I]?
5.49

Given the entry Clc1ccc(-c2nn3ncccc3c2-c2ccnc(Nc3ccccc3)n2)cc1 , what inhibition was observed with Platelet-derived growth factor receptor alpha (Homo sapiens), P16234 [T674I]?
3.65

Given the entry O=C(Nc1n[nH]c2cc(-c3ccc(F)cc3)ccc12)C1CC1 , what inhibition was observed with Platelet-derived growth factor receptor alpha (Homo sapiens), P16234 [T674I]?
3.24
